System: U2OS
Experiment: cell viability relative to DMSO; higher = less toxic
Details: 72 h; 10 nM
Record form. Attribute: cell viability. Fill in for each entry.
Give bare numbers, in %.

O=C(O[C@H]1C[C@H]2CC[C@@H](C1)[N+]21CCCC1)C(O)(c1ccccc1)c1ccccc1 = 97.5
CC(=O)N[C@@H](Cc1ccc(O)cc1)C(=O)O = 101

Would you mind giving cell viability for every compound in the list below?
1. Cc1ccc(-c2csc3ncnc(SCCC(=O)O)c23)cc1
2. CN(C)Cc1cccc(N/C(=C2\C(=O)Nc3cc(C(N)=O)ccc32)c2ccccc2)c1
3. CS(=O)(=O)c1ccc([C@@H](O)[C@@H](CO)NC(=O)C(Cl)Cl)cc1

Ans:
102
94.8
97.5

Would you mind giving cell viability for every compound in the list below?
1. Cn1c(CNc2ccc(C(=N)N)cc2)nc2cc(C(=O)N(CCC(=O)O)c3ccccn3)ccc21
2. COc1ccc2nc3ccc(Cl)cc3c(SCCCN)c2c1
3. Cc1cccc(CN2CCN(C(c3ccccc3)c3ccc(Cl)cc3)CC2)c1 (configuration not stated)
4. C[N+]1(C)[C@@H]2C[C@@H](OC(=O)C(O)(c3cccs3)c3cccs3)C[C@H]1[C@@H]1O[C@@H]12

Ans:
1: 99.3; 2: 101; 3: 98.6; 4: 94

Would you mind giving cell viability for every compound in the list below?
1. C=C[C@](C)(O)CC[C@@H]1[C@@]2(C)CCCC(C)(C)[C@@H]2CC[C@@]1(C)O
2. Cc1ccc2nc(NCCN)c3ncc(C)n3c2c1
3. CCCn1c(=O)c(C)cn2nc(N)nc12
4. O=C1NC(=O)C(c2ccccc2)(c2ccccc2)N1

Ans:
1. 96.6
2. 96.1
3. 97.3
4. 104

Would you mind giving cell viability for every compound in the list below?
1. Nc1ccc(F)cc1NC(=O)c1ccc(CNC(=O)/C=C/c2cccnc2)cc1 [chidamide]
2. CCCCNc1ncc(-c2ccc(CN3CCOCC3)cn2)c(N[C@H]2CC[C@H](O)CC2)n1
3. COC(=O)[C@H](CC(C)C)NC(=O)c1ccc(NC[C@@H](N)CS)cc1-c1cccc2ccccc12
4. CC#C[C@]1(O)CC[C@H]2[C@@H]3CCC4=CC(=O)CCC4=C3[C@@H](c3ccc(N(C)C)cc3)C[C@@]21C

Ans:
[103, 98.8, 97.4, 100]
